experiment: chemical genetic growth profiling, strain panel (AID 1159580);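 further: tested at 20 µM; growth read once vehicle control cultures reached saturation at 30 °C; 1 = growth at the plate median or of vehicle wells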; details: S. cerevisiae deletion strains, growth OD, locus YMR058W, strain fet3, stronger effect = lower value
The whole screen tested about 5,500 compounds, of which about 2,000 (36%) were called active. Inconclusive results (about 18%) are left out. Some of the results follow.
Examples of compounds with documented normalized growth follow.
Just the number, please, no unit attached.

Examples with answers:
compound	result
CC(=CC1CCC(C)C2C1=C(C)CC2O)C(=O)O (configuration not stated)	1.03
C[C@H]1C(=O)CCC2[C@]3(C)CC[C@@]4(C)C5CC(C)(C)CC[C@]5(C)CC[C@]4(C)C3CC[C@@]21C (some centres not stated)	1.02
O=C(O)CC[N+](=O)[O-]	1.03

QUERY: What does the record list as normalized growth for CN1CCCCC1c1ccc(-c2cccnc2)nc1 (configuration not stated) ?
RESULT: 0.97

QUERY: Query (compound): CCCc1ncc(C[n+]2ccccc2C)c(N)n1 ; field requested: normalized growth
RESULT: 0.975

QUERY: Please report the recorded normalized growth for O=c1c(O)cccc2cc(O)c(O)c(O)c12 .
RESULT: 0.179

QUERY: normalized growth lookup needed for CC(=CC1CCC(C)C2CCC(C)=C12)C(=O)O (configuration not stated) , thanks.
RESULT: 0.937

* * *

test: chemical genetic growth profiling, strain panel (AID 1159580);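 further: tested at 20 µM; growth read once vehicle control cultures reached saturation at 30 °C; 1 = growth at the plate median or of vehicle wells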; conditions: S. cerevisiae deletion strains, growth OD, locus YBL061C, strain skt5, stronger effect = lower value
Screen size: about 5,500 compounds; about 2,000 (36%) were called active. Inconclusive results (about 18%) are left out. Some of the results follow.
Strictly below 1 in normalized growth: yes. Otherwise: no.

Worked examples, 3 molecules total:
cpd-smiles	assigned-category
O=C1NS(=O)(=O)c2ccccc21	no
O=c1c(O)c(-c2ccccc2)oc2cccc(O)c12	yes
O=C(O)[C@H]1/C(=C/CO)O[C@@H]2CC(=O)N21	yes

QUERY: Please check: normalized growth for O=C1C=CC(=O)c2ccccc21 , strictly under 1 or not?
RESULT: yes

QUERY: Quick check: normalized growth of CC1=C(C(=O)O)N2C(=O)[C@@H](NC(=O)[C@@H](N)c3ccc(O)cc3)[C@H]2SC1 under 1?
RESULT: no

* * *

test: chemical genetic growth profiling, strain panel (AID 1159580);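 further: tested at 20 µM; growth read once vehicle control cultures reached saturation at 30 °C; 1 = growth at the plate median or of vehicle wells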; conditions: S. cerevisiae deletion strains, growth OD, locus YOL136C, strain PFK27
Hit rate of the full screen: of about 5,500 compounds, about 2,000 (36%) were called active. Not shown: some 18% with an inconclusive outcome. No stated cut-off is given here; in the data, active means normalized growth mostly below about 0.91 (no sharp cut-off); inconclusive means no clear call, values can overlap the other calls; inactive means mostly above about 0.92. Some of the results follow.
Give your call using only these classes: active, inactive

Examples with answers:
compound	assigned-category
NNC(=O)c1oc2nc(-c3ccccc3)cc(-c3ccccc3)c2c1N	inactive
O=S(=O)(Nc1cc(C(F)(F)F)cc(C(F)(F)F)c1)c1ccc(Cl)s1	active
C=CCC1C(=O)N(S(=O)(=O)c2ccc(Cl)cc2)N=C1CCC (stereo not drawn)	inactive
Cc1ccc2nc3c(nc2c1)-c1ccccc1C3=O	active
O=C(Nc1cc(Cl)cc(Cl)c1)c1cc(Cl)ccc1O	inactive
S=C(NCc1cccs1)Nc1cc(Cl)cc(Cl)c1	inactive
CC(=O)c1ccc(Sc2ccccc2)c([N+](=O)[O-])c1	inactive
O=C(Nc1cc(Cl)cc(Cl)c1)c1cc(Br)ccc1O	inactive
O=C(NCc1ccc2c(c1)OCO2)c1cc2ccccc2s1	active
O=C(OCCNc1ccc([N+](=O)[O-])cn1)c1ccc([N+](=O)[O-])o1	inactive

QUERY: Could you check what this test reported for Cc1oc(C(C)(C)C)cc1-c1cc(NC(=O)c2ccccc2)n[nH]1 ?
RESULT: inactive

QUERY: Query: recorded result category for Cc1csc2ncnc(N3CCN(C(=S)Nc4ccc(C(F)(F)F)cc4)CC3)c12 in this test
RESULT: inactive

QUERY: Record request — test call for O=[N+]([O-])c1ccc(Sc2ccccc2)cc1O
RESULT: inactive

QUERY: Short answer needed: outcome of this test for S=C(NCCc1csc2ccccc12)Nc1ccc(Cl)cc1 ?
RESULT: inactive

QUERY: Hey, what did the test say about CC(C)(C)c1ccc(-c2cc(NC(=O)c3ccc(Cl)cc3)n[nH]2)cc1 ?
RESULT: inactive

QUERY: How was COc1ccc(OC)c2nc3c(nc12)C(=O)c1ccccc1-3 classified in this test?
RESULT: inactive
